- TARGET_OF_ASSAY: T1, AA Peptide (fluorescence polarization), AAKLDEESILKQ{LYS(FITC)}
- T1 peptide: AAKLDEESILKQK(FITC)
- ASSAY_TEXT: fluorescence polarization, FITC peptide titrated with protein
No end group written: not given here. *: point of attachment. FITC = O=C1OC2(c3ccc(O)cc3Oc3cc(O)ccc32)c2ccc(NC(=S)*)cc21
READOUT_NAME: pKd
Quick note: pKd means taking -log10 of the concentration in moles per liter.

What does the data say about its pKd? Entry: PS852 (designed binder, Variant of PS557) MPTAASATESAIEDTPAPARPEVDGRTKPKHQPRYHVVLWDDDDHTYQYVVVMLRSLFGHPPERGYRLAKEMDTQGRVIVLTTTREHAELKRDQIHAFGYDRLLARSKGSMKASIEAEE
5.29

What does the data say about its pKd? Entry: PS769 (designed binder, Variant of PS557; also called N41D) MPTAASATESAIEDTPAPARPEVDGRTKPKRQPRYHVVLWDDDDHTYQYVVVMLQSLFGHPPERGYRLAKEVDTQGRVIVLTTTREHAELKRDQIHAFGYDRLLARSKGSMKASIEAEE
5.06

What does the data say about its pKd? Entry: PS833 (designed binder, Variant of PS557) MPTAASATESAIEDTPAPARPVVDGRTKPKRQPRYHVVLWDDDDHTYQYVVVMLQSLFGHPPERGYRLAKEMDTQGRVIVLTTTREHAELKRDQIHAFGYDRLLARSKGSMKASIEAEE
5.15

What does the data say about its pKd? Entry: PS824 (designed binder, Variant of PS557) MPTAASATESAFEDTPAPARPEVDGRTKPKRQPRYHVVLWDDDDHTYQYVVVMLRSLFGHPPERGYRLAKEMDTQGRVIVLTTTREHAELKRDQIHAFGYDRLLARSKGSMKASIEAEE
5.17

What does the data say about its pKd? Entry: PS961 (designed binder, Variant of PS557; also called N41D, V72M, Q55R, E63S, L68M, Y100R) MPTAASATESAIEDTPAPARPEVDGRTKPKRQPRYHVVLWDDDDHTYQYVVVMLRSLFGHPPSRGYRMAKEMDTQGRVIVLTTTREHAELKRDQIHAFGRDRLLARSKGSMKASIEAEE
5.48

What does the data say about its pKd? Entry: PS968 (designed binder, Variant of PS557; also called V72M, Q55R, Y100R) MPTAASATESAIEDTPAPARPEVDGRTKPKRQPRYHVVLWNDDDHTYQYVVVMLRSLFGHPPERGYRLAKEMDTQGRVIVLTTTREHAELKRDQIHAFGRDRLLARSKGSMKASIEAEE
5.26
